Hey, just so you know, these numbers are from patent US20250032409A1.

assay: OPTIMA II: mitomycin plasma concentrations; assay type: in vivo, human; conditions: human, plasma, other: instillation; read-out: Mitomycin plasma concentration, mean (standard deviation)
parameter: concentration at 3 h (ng/mL)
Note: unit ng/mL is implicit; provide only the numeric part.

Data request: Requested field: concentration at 3 h. Item: CO[C@@]12[C@H](COC(N)=O)C3=C(C(=O)C(C)=C(N)C3=O)N1C[C@@H]1N[C@@H]12 [Mitomycin]
Data returned: 1.88

====

assay: OPTIMA II: mitomycin plasma concentrations; type: in vivo, human; settings: human, plasma, other: instillation; read-out: Mitomycin plasma concentration, mean (standard deviation)
parameter: concentration at 2 h (ng/mL)
Report only the number, with the unit ng/mL understood.

Data request: Given the entry "CO[C@@]12[C@H](COC(N)=O)C3=C(C(=O)C(C)=C(N)C3=O)N1C[C@@H]1N[C@@H]12" , report its measured concentration at 2 h.
Data returned: 0.34
